# Tested System: Muscarinic acetylcholine receptor M1 (Homo sapiens)
# Assay Notes: M1 positive allosteric modulation, counter-screen, dose response, counter-screen for M4 PAM project, human, CHO cells, calcium fluorescence (AID 588744)
# Condition Label: CHO hM1 calcium mobilization, Fluo-4 fluorescence
Measured Quantity: pEC50
Please express pEC50 as -log10 of the molar concentration.

Provide only the value of recorded pEC50 for Cc1nc2sc(C(=O)NC3CC3)c(N)c2c(C)c1Cl 6.01

###

# Tested System: Muscarinic acetylcholine receptor M1 (Homo sapiens) (UniProt P11229)
# Sequence (P11229 whole entry, looked up): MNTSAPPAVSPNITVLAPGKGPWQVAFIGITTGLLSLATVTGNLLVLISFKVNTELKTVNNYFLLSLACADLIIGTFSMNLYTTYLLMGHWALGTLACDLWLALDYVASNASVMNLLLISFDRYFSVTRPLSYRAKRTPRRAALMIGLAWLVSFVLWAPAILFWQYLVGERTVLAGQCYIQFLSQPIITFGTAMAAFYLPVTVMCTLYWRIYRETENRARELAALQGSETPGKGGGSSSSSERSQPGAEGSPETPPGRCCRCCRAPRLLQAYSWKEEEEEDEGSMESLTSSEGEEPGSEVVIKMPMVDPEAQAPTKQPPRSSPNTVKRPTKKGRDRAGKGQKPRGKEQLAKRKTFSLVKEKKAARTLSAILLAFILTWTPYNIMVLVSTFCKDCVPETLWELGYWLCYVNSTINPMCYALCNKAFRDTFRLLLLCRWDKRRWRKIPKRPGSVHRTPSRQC
# Assay Notes: M1 positive allosteric modulation, counter-screen, dose response, counter-screen for M4 PAM project, human, CHO cells, calcium fluorescence (AID 588744)
# Condition Label: CHO hM1 calcium mobilization, Fluo-4 fluorescence; at 30 µM (top of the series)
Active and inactive are the calls of the source.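 The calls were made as follows: active = compounds whose response rose with dose, given a half-maximal potency and peak effect versus acetylcholine; inactive = the rest.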

Structure As Smiles: Cc1nc2sc(C(=O)NCc3cccc(F)c3F)c(N)c2c(C)c1Cl
% ACh max response: inactive
--
Structure As Smiles: Cc1nc2sc(C(=O)NCc3ccncn3)c(N)c2c(C)c1Cl
% ACh max response: inactive
--
Structure As Smiles: Cc1nc2sc(C(=O)NCc3nccs3)c(N)c2c(C)c1Cl
% ACh max response: inactive
--
Structure As Smiles: Cc1nc2sc(C(=O)NCCc3ccncc3)c(N)c2c(C)c1Cl
% ACh max response: inactive

These entries and their values trace back to PubChem BioAssay AID588744.
